B1: SH3 and PX domain-containing protein 2B, residues 155 to 209; numbered along this chain, A1X283 (parent)
chain: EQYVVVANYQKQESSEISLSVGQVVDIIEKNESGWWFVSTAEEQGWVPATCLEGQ

# Variants of: B1
# assay_info: abundance fitness (aPCA) (normalised: wild type 0, dead -1); higher = more abundant; growth selection in yeast, the domain comes from the species named
# cond: Homo sapiens
abundance fitness of -0.3 or higher: YES. Under -0.3: NO.

Reference set (4 entries):
EQYVVVANYQKQESSEISLSVGQVVDIIEKNESGWWFVSTAETQGWVPATCLEGQ [E43T] :: YES
EQYVVVANYQKQESSEIILSVGQVVDIIEKNESGWWFVSTAEEQGWVPATCLEGQ [S18I] :: NO
EQYVVVANYQKQESSEISLSVGQVVDIIEKNESGWWFVSTAEEQGWVNATCLEGQ [P48N] :: NO
EQYVVVANYQKQESSEISLSVGQVVDIIEKNESGWWFVSTTEEQGWVPATCLEGQ [A41T] :: YES

Is the recorded value of abundance fitness equal to or greater than -0.3 for this variant? EQYVVVANYQKQESSEISLSVGQVVDIIEKNESGWWFVSTAEEQGWVPAFCLEGQ [T50F]
NO

Note, next up: EQYVVVANYQKQGSSEISLSVGQVVDIIEKNESGWWFVSTAEEQGWVPATCLEGQ [E13G]
YES

These data points were gathered from the Human Domainome abundance scans (Beltran et al. 2025).
